# measurement.notes: Toxicity liver stage against HepG2, at 10uM
# Type: cell-based
# Set-up: test concentration 10 uM, cell line HepG2-A16-CD81EGFP
# assay.setup: human, HepG2-A16-CD81EGFP cells; read-out: INHIBITION
The entries below are paired with their reported cytotoxicity at 10 µM.
Expressed in %, but write only the number.

Solved entries:
Cc1cc(C)n(C2CCCN(C(=O)CCOc3ccccc3F)C2)n1 (stereo unspecified)
-6.19
N#Cc1ccc(C(=O)NCC2(N3CCOCC3)CCCC2)nc1
8.96
CC(C)[C@@H]1CN(Cc2ccccc2C#N)C[C@H]1C(=O)O
6.3

Entry under test: "Cc1cc(NC(=O)[C@H]2CCCCN2C(=O)OC(C)(C)C)no1" . Its cytotoxicity at 10 µM was -1.48

Entry under test: "COC(=O)NCC(=O)NCC(C)(C)c1cccc(C(F)(F)F)c1" . Its cytotoxicity at 10 µM was -3.36

Entry under test: "Cc1ccc(CNCc2cccc(NC(=O)CCN3CCOCC3)c2)s1" . Its cytotoxicity at 10 µM was -1.91

* * *

# measurement.notes: Toxicity liver stage against HepG2, at 10uM
# Assay type: cell-based
# Set-up: test concentration 10 uM, cell line HepG2-A16-CD81EGFP
# assay.setup: human, HepG2-A16-CD81EGFP cells; read-out: INHIBITION
experimental.endpoint: cytotoxicity at 10 µM (%)
Expressed in %, but write only the number.

Solved entries:
CCC(C)(NCC(=O)OC)c1nccs1 (centres undefined)
-12.7
COCCOCC(=O)N(Cc1cccc(C)c1)C(C)C
-12.4

Entry under test: CN(C)CC1CSCCCN1S(=O)(=O)c1ccc(C(F)(F)F)cc1 (centres undefined) . Its cytotoxicity at 10 µM was -6.71

Entry under test: "COc1cccc(CN2CC[C@H]3[C@@H](C2)[C@H](c2ccsc2)CN3C(C)=O)c1" . Its cytotoxicity at 10 µM was -5.61

Entry under test: "Cc1ccc(CN2C[C@@H]3C[C@H](C(=O)NCc4cccnc4)[C@H](C2)O3)cc1" . Its cytotoxicity at 10 µM was 2.5

Entry under test: CN(C)C(Cn1ccnc1-c1nccn1C)c1ccccc1Cl (centres undefined) . Its cytotoxicity at 10 µM was -0.0184

Entry under test: CC(NC(=O)CN(C)S(C)(=O)=O)c1nnc2n1CCCCC2 (centres undefined) . Its cytotoxicity at 10 µM was -10.2

* * *

# measurement.notes: Toxicity liver stage against HepG2, at 10uM
# Format: cell-based
# Parameters: test concentration 10 uM, cell line HepG2-A16-CD81EGFP
# assay.setup: human, HepG2-A16-CD81EGFP cells; read-out: INHIBITION
experimental.endpoint: cytotoxicity at 10 µM (%)
Expressed in %, but write only the number.

Cc1n[nH]c(C)c1Sc1ccccc1NC(=O)CN1CCCC1
-8.7
Cc1cnn(C2CN(CCCOc3ccc(C#N)cc3)C2)c1
4.09
CC(C)Nc1ncc(-c2csc(NC(=O)C[C@H]3COCCN3)n2)cn1
-8.69

Entry under test: CC(NC(=O)NCCCN(C)S(C)(=O)=O)c1ccc(Cl)cc1 (stereo not given) . Its cytotoxicity at 10 µM was -2.24

Entry under test: Cc1ccc(C)n1-c1c(C(=O)NCC(c2ccsc2)N(C)C)cnn1C (stereo not given) . Its cytotoxicity at 10 µM was 17.1
